Counter-ions that a name gives are not always drawn.
Would you mind telling me the reported melting point of each entry?

Compound	Readout label	Result
Cc1ccc(C(=O)C2=C(O)C(=O)N(c3ncc(S(C)(=O)=O)s3)C2c2ccc(C(C)C)cc2)cc1 (stereo not shown)	melting point	269 to 271 °C

Below are 3 compounds. Give each one its melting point.
1. Cc1ccc(C(=O)C2=C(O)C(=O)N(c3ncc(S(=O)(=O)c4ccc([N+](=O)[O-])cc4)s3)C2c2ccc(C(=O)N(C)C)cc2)cc1 (stereo not shown) (as salt: hydrochloride)
2. Cc1nnc(N2C(=O)C(O)=C(C(=O)c3ccc(C(C)C)cc3)C2c2ccc(OC(F)(F)F)cc2)s1 (stereo not shown)
3. COc1ccc(C(=O)C2=C(O)C(=O)N(c3nncs3)C2c2ccc(C(C)(C)C)cc2)cc1 (stereo not shown)

1. 205 °C
2. 260 °C
3. 289 to 291 °C

Below are 2 compounds. Give each one its melting point.
1. Cc1cnc(N2C(=O)C(O)=C(C(=O)c3ccc(C(C)C)cc3)C2c2ccc(OC(F)(F)F)cc2)s1 (stereo not shown)
2. CNC(=O)c1ccc(C2C(C(=O)c3ccc(C)cc3)=C(O)C(=O)N2c2ncc(S(=O)(=O)c3ccc([N+](=O)[O-])cc3)s2)cc1 (stereo not shown) (as salt: hydrochloride)

["243 to 244 °C", "195 to 197 °C"]

Record request: melting point value, item COc1ccc(C(=O)C2=C(O)C(=O)N(c3nnc(C(C)C)s3)C2c2ccc(C(C)(C)C)cc2)cc1 (stereo not shown)
257 °C

---

- Target entity: HCV NS5BΔ21/Gal4-DBD fusion protein (Hepatitis C virus genotype 1b, UniProt Q9WMX2)
- Construct: The protein was expressed with a 21 amino acid C-terminal deletion to remove transmembrane domain
- Assay explanation: 3D-SCREEN assay (NS5B reporter gene assay in Huh-7 cells)
Readout label: pEC50
Numbers only, as −log10 of the molar value.

Molecule	pEC50
COc1ccc(C(=O)C2=C(O)C(=O)N(c3nnc(C)s3)C2c2ccc(C(C)(C)C)cc2)cc1 (stereo not shown) [Example 3]	5.15
CC(C)c1ccc(C2C(Cc3ccccc3)=C(O)C(=O)N2c2ncc(S(=O)(=O)c3ccc([N+](=O)[O-])cc3)s2)cc1 (stereo not shown) [Example 36]	5.30
Cc1ccc(C(=O)C2=C(O)C(=O)N(c3ncc(S(=O)(=O)c4ccc([N+](=O)[O-])cc4)s3)C2c2ccc(C)cc2)cc1 (stereo not shown) [Example 124]	5.15
CC(C)c1ccc(C(=O)C2=C(O)C(=O)N(c3ncc(Sc4ccc([N+](=O)[O-])cc4)s3)C2c2ccc(OC(F)(F)F)cc2)cc1 (stereo not shown) [Example 131]	4.89
COC(=O)c1sc(N2C(=O)C(O)=C(C(=O)c3ccc(Cl)cc3)C2c2ccc(C(C)(C)C)cc2)nc1C (stereo not shown) [Example 62]	4.70
CC(C)c1ccc(C2C(C(=O)c3ccc(C(C)(C)C)cc3)=C(O)C(=O)N2c2ncc(S(=O)(=O)c3ccc([N+](=O)[O-])cc3)s2)cc1 (stereo not shown) [Example 9]	5.40
O=C(C1=C(O)C(=O)N(c2ncc(S(=O)(=O)c3ccc([N+](=O)[O-])cc3)s2)C1c1cccc(Br)c1)c1ccc(Cl)cc1 (stereo not shown) [Example 57]	5.40

Consider the record given below.
Record request: pEC50 value, item COc1ccc(C(=O)C2=C(O)C(=O)N(c3nnc(C4CCCCC4)s3)C2c2ccc(C(C)(C)C)cc2)cc1 (stereo not shown) [Example 27]
4.92

All values here come from patent US20120189579A1.
